experiment: NCI Yeast Anticancer Drug Screen. Data for the rad50 strain (AID 155);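 also: 0% = growth of vehicle-only cultures of the same strain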; conditions: S. cerevisiae rad50 strain growth inhibition; at 50.0 µM; hits give high values
Compounds without any hit were thinned out: in the full panel of roughly 79,000, 15% have a hit.
Value kind: growth inhibition (%)

Molecule: CSc1cc(=O)n(C2OC(CO)C(O)C2O)c(=O)[nH]1 (configuration not stated)
Value kind: growth inhibition
Quantitative result: 9.05
//
Molecule: CC(C)OP(=O)(OC(C)C)/C(N)=N/Nc1ccc([N+](=O)[O-])cc1
Value kind: growth inhibition
Quantitative result: 25.6
//
Molecule: COC(=O)C1=C(C)N(NC(N)=O)C2(N)N(NC(N)=O)C(C)=C(C(=O)OC)C12C(=O)OC (configuration not stated)
Value kind: growth inhibition
Quantitative result: -9.65
//
Molecule: N#CNc1c2ccccc2nc2ccccc12
Value kind: growth inhibition
Quantitative result: -12.1
//
Molecule: CCCC(=O)Oc1ccc(Br)cc1
Value kind: growth inhibition
Quantitative result: 6.6
//
Molecule: O=C(O)CC(CC(=O)O)c1ccc(F)cc1
Value kind: growth inhibition
Quantitative result: -2
//
Molecule: N#CC1CCCC(CBr)C1 (configuration not stated)
Value kind: growth inhibition
Quantitative result: -24.9
//
Molecule: COC(=O)C1=C(C(=O)OC)SC(=C2c3ccsc3-c3sccc32)S1
Value kind: growth inhibition
Quantitative result: -31.3
//
Molecule: CCOC(=O)C(C(=O)OCC)C(C(=O)OCC)C(=O)OCC
Value kind: growth inhibition
Quantitative result: -22.7
//
Molecule: Cc1cc(=O)n(-c2cncc(Br)c2)[nH]1
Value kind: growth inhibition
Quantitative result: 1.5
//
Molecule: CC(C)(CO)NC(=O)c1ccccc1Br
Value kind: growth inhibition
Quantitative result: -31.9
//
Molecule: CCOc1ccccc1C1=CCCCCC1
Value kind: growth inhibition
Quantitative result: -0.65
